Target: GST-Nv-NF-kB (Cys allele) (Nematostella vectensis, UniProt E5G601 2-411)
Sequence: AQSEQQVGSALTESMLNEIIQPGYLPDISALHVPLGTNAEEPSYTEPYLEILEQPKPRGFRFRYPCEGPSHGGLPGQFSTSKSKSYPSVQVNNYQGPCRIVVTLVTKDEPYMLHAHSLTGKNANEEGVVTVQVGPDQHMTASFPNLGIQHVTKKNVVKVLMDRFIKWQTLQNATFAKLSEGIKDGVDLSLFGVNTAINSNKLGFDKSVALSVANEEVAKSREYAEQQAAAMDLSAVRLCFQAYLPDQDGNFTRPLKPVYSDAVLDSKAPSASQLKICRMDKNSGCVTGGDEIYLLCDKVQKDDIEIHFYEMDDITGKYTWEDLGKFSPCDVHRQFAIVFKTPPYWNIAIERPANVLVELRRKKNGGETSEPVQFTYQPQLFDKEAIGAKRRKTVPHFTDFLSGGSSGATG
Experiment: protein-binding microarray (PBM); PBM: ~300 nM protein, 6 mM HEPES pH 7.8, 80 mM KCl, 0.5 mM EDTA, 0.5 mM EGTA, 6% glycerol, 35 ng/ul poly-dIdC, 1% milk, 1 h, room temperature; Ap Aiptasia and Nv Nematostella (sea anemones) / Co Capsaspora / Aq Amphimedon (sponge) / Dm Drosophila / Hu human; RHD is the Rel homology domain; high values mean tight binding
Settings: dsDNA, one strand shown
Provide the recorded binding signal for the entries that follow.
Number only, in z-score; omit the unit.

Request: Entry CCGATTAACATCAGGGGACGGGATGATGTTAATCGGGTCTTGATTCGCTTGACGCTGCTG : reported binding signal = ?
Response: 3.92

Request: Quick one: CCGATTAACATCAAACGCCCCCCTGATGTTAATCGGGTCTTGATTCGCTTGACGCTGCTG
Response: 4.46

Request: Follow-up item: CCGATTAACATCAGGTAATCACCTGATGTTAATCGGGTCTTGATTCGCTTGACGCTGCTG
Response: 2.2

Request: What do you get for CCGATTAACATCAGGAGTTTCCCTGATGTTAATCGGGTCTTGATTCGCTTGACGCTGCTG ?
Response: 6.51

Request: Moving on to the next sequence: CCGATTAACATCAAACAATTCCCTGATGTTAATCGGGTCTTGATTCGCTTGACGCTGCTG
Response: 5.26

Request: Another sequence: CCGATTAACATCAGAAATTCCCCTGATGTTAATCGGGTCTTGATTCGCTTGACGCTGCTG
Response: 12.3

Request: For CCGATTAACATCACAATACCCCCTGATGTTAATCGGGTCTTGATTCGCTTGACGCTGCTG then?
Response: 4.51

Request: Cool, now CCGATTAACATCAGGCACTCCCCTGATGTTAATCGGGTCTTGATTCGCTTGACGCTGCTG
Response: 3.18

Request: Again, but for CCGATTAACATCAGGGAAATAACTGATGTTAATCGGGTCTTGATTCGCTTGACGCTGCTG
Response: 4.77

Request: Next up: CCGATTAACATCATGGAGGGAGGTGATGTTAATCGGGTCTTGATTCGCTTGACGCTGCTG
Response: 1.62

Request: What would you report for CCGATTAACATCAGGGGAATCACTGATGTTAATCGGGTCTTGATTCGCTTGACGCTGCTG ?
Response: 8.19

Request: Same again, this time with CCGATTAACATCAAGGGGGATATTGATGTTAATCGGGTCTTGATTCGCTTGACGCTGCTG
Response: 6.77

Request: Now this one: CCGATTAACATCAGAAAATCACCTGATGTTAATCGGGTCTTGATTCGCTTGACGCTGCTG
Response: 3.28

Request: CCGATTAACATCAGAAGTCCCCCTGATGTTAATCGGGTCTTGATTCGCTTGACGCTGCTG ?
Response: 7.32

Request: Another sequence to check: CCGATTAACATCAGGGGCACCCCTGATGTTAATCGGGTCTTGATTCGCTTGACGCTGCTG
Response: 3.94

Request: What do you have for CCGATTAACATCACCCATTTCCCTGATGTTAATCGGGTCTTGATTCGCTTGACGCTGCTG ?
Response: 3.07

Request: Now the same for CCGATTAACATCAAATATCCCCCTGATGTTAATCGGGTCTTGATTCGCTTGACGCTGCTG
Response: 8.51

Request: Entry to check: CCGATTAACATCAAGGGGGGGTGTGATGTTAATCGGGTCTTGATTCGCTTGACGCTGCTG
Response: 2.8

Request: And what about the sequence CCGATTAACATCAACTACCCCCCTGATGTTAATCGGGTCTTGATTCGCTTGACGCTGCTG ?
Response: 2.46

Request: How about this sequence: CCGATTAACATCAGGGGGGAATATGATGTTAATCGGGTCTTGATTCGCTTGACGCTGCTG
Response: 6.54

Request: Now the sequence CCGATTAACATCAAATCCCCCCATGATGTTAATCGGGTCTTGATTCGCTTGACGCTGCTG
Response: 6.31

Request: Thanks! And CCGATTAACATCAGAAATCCCCATGATGTTAATCGGGTCTTGATTCGCTTGACGCTGCTG ?
Response: 9.17

Request: Now the sequence CCGATTAACATCAGACTTCCCCATGATGTTAATCGGGTCTTGATTCGCTTGACGCTGCTG
Response: 5.64

Request: Okay, and CCGATTAACATCAGGGTATTTACTGATGTTAATCGGGTCTTGATTCGCTTGACGCTGCTG ?
Response: 5.05

Request: How about CCGATTAACATCAGGGGGGGTACTGATGTTAATCGGGTCTTGATTCGCTTGACGCTGCTG ?
Response: 3.45

Request: Param item: CCGATTAACATCACGGGGTTGCCTGATGTTAATCGGGTCTTGATTCGCTTGACGCTGCTG
Response: 1.02

Request: Also CCGATTAACATCACCGTTCCCCCTGATGTTAATCGGGTCTTGATTCGCTTGACGCTGCTG , if possible.
Response: 5.21

Request: Also, CCGATTAACATCACCGATTTCCCTGATGTTAATCGGGTCTTGATTCGCTTGACGCTGCTG please.
Response: 3.79

Request: Consider next the sequence CCGATTAACATCACGGTTTTCCCTGATGTTAATCGGGTCTTGATTCGCTTGACGCTGCTG in the same way.
Response: 5.02

Request: Next up: CCGATTAACATCAAGCAATTCCCTGATGTTAATCGGGTCTTGATTCGCTTGACGCTGCTG
Response: 4.28

Request: Would you mind doing CCGATTAACATCACGGGAAATCCTGATGTTAATCGGGTCTTGATTCGCTTGACGCTGCTG as well?
Response: 6.03

Request: Check CCGATTAACATCAAACAATCCCCTGATGTTAATCGGGTCTTGATTCGCTTGACGCTGCTG too.
Response: 7.94

Request: Note, next up: CCGATTAACATCAAGGGGAATAATGATGTTAATCGGGTCTTGATTCGCTTGACGCTGCTG
Response: 8.01

Request: What would you report for CCGATTAACATCAGGGGGAAAGATGATGTTAATCGGGTCTTGATTCGCTTGACGCTGCTG ?
Response: 5.7

Request: Same read-out for CCGATTAACATCAAATACTTCCCTGATGTTAATCGGGTCTTGATTCGCTTGACGCTGCTG ?
Response: 3.32

Request: Please give the result for CCGATTAACATCAGGGAATACCCTGATGTTAATCGGGTCTTGATTCGCTTGACGCTGCTG too.
Response: 11.2
